- EXPERIMENT_NOTES: Cefadroxil plasma pharmacokinetics, phase 1 two-period crossover study
- Format: in vivo, healthy volunteers (human)
- CONDITION_NOTES: human, plasma, oral, 500 mg
QUANTITY: Tmax (h)
Quick note: give the figure in h, leave out the unit.

Req: Tell me the measured Tmax of CC1=C(C(=O)O)N2C(=O)[C@@H](NC(=O)[C@H](N)c3ccc(O)cc3)[C@H]2SC1 , please.
Resp: 1.5
